- System: HCT-15 colon
- ASSAY NOTES: NCI-60 one-dose screen, 48 h
- CONDITIONS USED: 10 µM unless noted
Compounds without any hit were thinned out: in the full panel of roughly 83,000, 20% have a hit. The source made the active and inactive calls. How the source made its calls: active means growth percent below 10; inactive means the rest.
Please answer using one outcome listed in active, inactive

CN1CCN(CCCOc2ccc3nc(Nc4cc(Cl)cc(Cl)c4)ccc3c2)CC1 active
O=S(=O)(NCCNc1cc(-c2c(-c3cccc(O)c3)nc3sccn23)ccn1)c1ccc(Cl)cc1 inactive

Proceed to the following item.
Req: Hi team, can someone confirm the assay call for `CC/C=C/[C@@H]1C=C[C@@H]2CCC[C@H]2[C@@H]1CC[C@H](O)[C@H](C)N` ?
Resp: active

----------
- Test system: BT-549 breast
- ASSAY NOTES: NCI-60 one-dose screen, 48 h
- CONDITIONS USED: 10 µM unless noted
This is part of a sample that, as a whole, favours compounds with a hit. Of some 83,000 tested, about 20% had one in any assay. The source made the active and inactive calls. How the source made its calls: active means growth percent below 10; inactive means the rest.
Your answer must be one of the following: Y = active, N = inactive

Oc1ccccc1-c1nc2ccccn2c1NCCN1CCOCC1 N
C=C(C)[C@@H]1CC[C@]2(CO)CC[C@]3(C)[C@H](CC[C@@H]4[C@@]5(C)C=C(C#N)C(=O)C(C)(C)[C@@H]5CC[C@]43C)[C@@H]12 N
CCn1nc(C#Cc2c(C)ccc3c(Nc4ccc(Cl)cc4)nccc23)c2c(N)ncnc21 N
CC(C)N(CCOC(=O)Nc1ccccc1Cl)C(C)C N
COc1cc(/C=C2\C=C(c3ccccc3)N(CCc3ccccc3)C2=O)cc(OC)c1OC N

Field: next molecule
Req: Could you check what this test reported for `CC(=O)c1cc2c(o1)C(=O)c1ccccc1C2=O` ?
Resp: Y

----------
- Tested on: IGROV1 ovarian
- ASSAY NOTES: NCI-60 one-dose screen, 48 h
- CONDITIONS USED: 10 µM unless noted
The panel holds about 83,000 compounds, 20% with a hit somewhere; the sample as a whole holds those more often. The source made the active and inactive calls. How the source made its calls: active means growth percent below 10; inactive means the rest.
Hello, when you answer, please use one of the following outcomes: class 1 (active), class 0 (inactive)

Worked cases, answers included:
MOLECULE	CLASS LABEL
CSc1nc2sc3cc(Cl)ccc3n2c(=N)c1C#N	class 0
O=[N+]([O-])c1ccccc1C(O)Cc1ccc2ccccc2n1 (configuration not stated)	class 0
COc1cc(/C=C2\C=C(c3ccccc3)N(CCc3ccccc3)C2=O)cc(OC)c1OC	class 0

Req: What was the test verdict on OC(COc1cccc2ccccc12)CN1CCN(c2ccccc2)CC1 (configuration not stated) ?
Resp: class 0

Req: What about `N#Cc1cccc(-c2nc3ccccn3c2NCCN2CCOCC2)c1` ?
Resp: class 0

Req: How about this molecule: `O=C(NCCN1CCC(O)CC1)c1cc2c(o1)C(=O)c1ccccc1C2=O`
Resp: class 1

Req: Same read-out for `CC(C)c1ccc(C(=O)OC(=O)c2ccc(C(C)C)cc2)cc1` ?
Resp: class 0

----------
- System: HS 578T breast
- ASSAY NOTES: NCI-60 one-dose screen, 48 h (100 = growth as untreated, 0 = no growth, -100 = all killed)
- CONDITIONS USED: 10 µM unless noted
About 83,000 compounds went through this panel and 20% of them were active in at least one assay; those are over-represented in the sample as a whole. Calls of active or inactive are those of the source. The calls were made as follows: active = growth percent below 10; inactive = the rest.
MEASUREMENT KIND: growth

As a guide, the following entries are already answered.
COMPOUND	growth
NC(=Nc1ccc(N)cc1)C(N)=Nc1ccc(N)cc1	114% (inactive)
N#C/C(=C\c1ccc2c(c1)OCO2)n1nnc2ccccc21	-4.27% (active)
COc1cccc(/C=C2\COc3ccc(O)cc3C2=O)c1OC	73% (inactive)

Req: Suppose we examine the compound `CN(C)c1ccc(/C=C/c2c(F)cccc2F)cc1` ; what growth value has been reported?
Resp: 89.9% (inactive)

Req: Another compound to check: `O=C(c1ccccc1)c1ccc(Cl)c([N+](=O)[O-])c1`
Resp: 87.7% (inactive)

Req: Proceed to `COc1ccc2cc(-c3ccc(C(=O)NN)c(C)n3)ccc2c1`
Resp: 99.4% (inactive)

Req: Same thing, different compound: `CCOC(=O)c1nnn(-c2ccccc2)c1C1=CN(C)CCC1`
Resp: 91.9% (inactive)

Req: Same lookup for `COc1cc2ccccc2cc1C(=O)NC(=S)Nc1ccc(-c2nc3ccccc3[nH]2)cc1` , please.
Resp: 30.7% (inactive)

Req: # repeat for `CC(C)c1ccc(NC(=O)Cc2ccc(Nc3ncnc4cc(-c5cnn(CCN(C)C)c5)ccc34)cc2)cc1`
Resp: -60.6% [30 µM] (active)

Req: Check `COc1cc(-c2ncn(/C=C\c3nnco3)n2)cc(C(F)(F)F)c1` too.
Resp: 19.3% (inactive)

Req: Okay, and Nc1ccn(C2OC(F)(CO)C(O)C2F)c(=O)n1 (stereo unspecified) ?
Resp: 78.8% (inactive)
